Provenance of the data: ChEMBL document CHEMBL1127077

# Test system: U-937
# experimental.details: Antagonistic activity to inhibit the calcium mobilization response in human U-937 cells
# Assay type: functional, cell-based
pIC50: −log10 of the molar value.
observed.property: pIC50

Example molecules with recorded pIC50:
- molecule: "COc1ccc(CCCCCCCCOc2ccc(CSc3cccc(C(=O)O)c3)nc2/C=C/C(=O)O)cc1"
  target.or.system: "U-937"
  meas.value: 6.41
- molecule: "CCCCCCCCCCCCOc1ccc(COc2cccc(C(=O)O)c2)nc1/C=C/C(=O)O"
  target.or.system: "U-937"
  meas.value: 6.24
- molecule: "COc1ccc(CCCCCCCCOc2ccc(CSc3ccccc3)nc2/C=C/C(=O)O)cc1"
  target.or.system: "U-937"
  meas.value: 6.96
- molecule: "CCCCCCCCCCOc1ccc(CC(O)c2cccc(C(=O)O)c2)nc1CCC(=O)O (stereo not given)"
  target.or.system: "U-937"
  meas.value: 5.47
- molecule: "COc1ccc(CCCCCCCCOc2ccc(C[S+]([O-])c3cccc(OC)c3)nc2/C=C/C(=O)O)cc1 (stereo not given)"
  target.or.system: "U-937"
  meas.value: 6.52

(A) CCCCCCCCCCCCOc1ccc(CS(=O)(=O)c2cccc(C(=O)O)c2)nc1/C=C/C(=O)O
(B) COc1ccc(CCCCCCCCOc2ccc(C[S+]([O-])c3cccc(N)c3)nc2/C=C/C(=O)O)cc1 (stereo not given)
Compare pIC50: is it lower for A or for B ? Give the label under which the chosen entry appears.
A

(P) CCCCCCCCCCCCOc1ccc(C[S+]([O-])c2ccccc2C(=O)O)nc1/C=C/C(=O)O (stereo not given)
(Q) Nc1cccc(SCc2ccc(OCCCCCCCCc3ccccc3)c(/C=C/C(=O)O)n2)c1
(R) Nc1cccc([S+]([O-])Cc2ccc(OCCCCCCCCc3ccc(F)cc3)c(/C=C/C(=O)O)n2)c1 (stereo not given)
Order the entries by their reported pIC50, beginning at the minimum. # format: label list in the order the request specifies
P, R, Q
(P: 5.82, R: 6.96, Q: 7.22)

====

# target.or.system: Leukotriene B4 receptor 1 (Homo sapiens, UniProt Q15722)
# Sequence (Q15722 whole entry): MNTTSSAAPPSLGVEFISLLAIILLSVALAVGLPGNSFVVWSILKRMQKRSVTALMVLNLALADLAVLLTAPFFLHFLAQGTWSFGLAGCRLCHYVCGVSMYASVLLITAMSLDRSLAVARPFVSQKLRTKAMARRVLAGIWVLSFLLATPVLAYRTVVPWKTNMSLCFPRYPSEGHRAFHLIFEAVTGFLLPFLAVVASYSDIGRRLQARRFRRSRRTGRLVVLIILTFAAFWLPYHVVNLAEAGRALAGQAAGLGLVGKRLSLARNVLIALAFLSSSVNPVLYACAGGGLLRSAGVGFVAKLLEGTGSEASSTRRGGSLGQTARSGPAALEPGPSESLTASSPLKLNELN
# experimental.details: Binding affinity of [3H]LTB4 to receptors on intact human polymorphonuclear leukocytes
pKi: −log10 of the molar value.
observed.property: pKi

Example compounds with recorded pKi:
- compound: "CCCCCCCCCCOc1ccc(CC(O)c2cccc(C(=O)O)c2)nc1CCC(=O)O (stereo not drawn)"
  pKi: 6.37
- compound: "COc1ccc(CCCCCCCCOc2ccc(C[S+]([O-])c3cccc(N(C)C)c3)nc2/C=C/C(=O)O)cc1 (stereo not drawn)"
  pKi: 6.61
- compound: "CCCCCCCCCCCCOc1ccc(C[S+]([O-])c2ccccc2C(=O)O)nc1/C=C/C(=O)O (stereo not drawn)"
  pKi: 6.32
- compound: "COc1ccc(CCCCCCCCOc2ccc(C[S+]([O-])c3cccc(N)c3)nc2/C=C/C(=O)O)cc1 (stereo not drawn)"
  pKi: 8.33
- compound: "CCCCCCCCC(O)/C=C/c1cccc(CC(O)c2cccc(C(=O)O)c2)n1 (stereo not drawn)"
  pKi: 9.00
- compound: "COc1ccc(CCCCCCCCOc2ccc(C[S+]([O-])c3cccc(NS(=O)(=O)c4ccccc4)c3)nc2/C=C/C(=O)O)cc1 (stereo not drawn)"
  pKi: 6.83

(a) COc1ccc(CCCCCCCCOc2ccc(C[S+]([O-])c3cccc(OC)c3)nc2/C=C/C(=O)O)cc1 (stereo not drawn)
(b) COc1ccc(CCCCCCCCOc2ccc(CSc3cccc(NS(=O)(=O)c4ccccc4)c3)nc2/C=C/C(=O)O)cc1
Pick one: a or b . Which has the bigger pKi number? Give the label under which the chosen entry appears.
a
(a: 6.63, b: 6.22)

====

# Test system: U-937
# experimental.details: Antagonistic activity to inhibit the calcium mobilization response in human U-937 cells
# Format: functional, cell-based
pIC50: −log10 of the molar value.
observed.property: pIC50

Example compounds with recorded pIC50:
- compound: "COc1ccc(CCCCCCCCOc2ccc(C[S+]([O-])c3cccc(C(=O)O)c3)nc2/C=C/C(=O)O)cc1 (centres undefined)"
  target.or.system: "U-937"
  pIC50: 5.96
- compound: "COc1ccc(CCCCCCCCOc2ccc(COc3cccc(C(=O)O)c3)[n+]([O-])c2/C=C/C(=O)O)cc1"
  target.or.system: "U-937"
  pIC50: 6.05

(a) CCCCCCCCCCCCOc1ccc(C[S+]([O-])c2ccc(C(=O)O)cc2)nc1/C=C/C(=O)O (centres undefined)
(b) COc1ccc(CCCCCCCCOc2ccc(C[S+]([O-])c3cccc(NS(=O)(=O)c4ccccc4)c3)nc2/C=C/C(=O)O)cc1 (centres undefined)
Pick one: a or b . Which has the bigger pIC50 number? Give the label under which the chosen entry appears.
b
(b: 6.82, a: 5.89)

====

# System: U-937
# experimental.details: Antagonistic activity to inhibit the calcium mobilization response in human U-937 cells
# Assay type: functional, cell-based
pIC50: −log10 of the molar value.
observed.property: pIC50

- compound: "CCCCCCCCCCCCOc1ccc(COc2cccc(C(=O)O)c2)[n+]([O-])c1/C=C/C(=O)O"
  pIC50: 6.00

(A) COc1ccc(CCCCCCCCOc2ccc(CSc3cccc(NS(=O)(=O)c4ccccc4)c3)nc2/C=C/C(=O)O)cc1
(B) Nc1cccc([S+]([O-])Cc2ccc(OCCCCCCCCc3ccc(C(F)(F)F)cc3)c(/C=C/C(=O)O)n2)c1 (centres undefined)
(C) COc1ccc(CCCCCCOc2ccc(CC(O)c3cccc(C(=O)O)c3)nc2/C=C/C(=O)O)cc1 (centres undefined)
Order these by pIC50, descending, and give the full ranking. # format: label list in the order the request specifies
B, A, C
(B: 7.27, A: 6.62, C: 5.40)

====

# target.or.system: Leukotriene B4 receptor 1 (Homo sapiens, UniProt Q15722)
# experimental.details: Binding affinity of [3H]LTB4 to receptors on intact human polymorphonuclear leukocytes
pKi: −log10 of the molar value.
observed.property: pKi

Example compounds with recorded pKi:
- compound: "COc1ccc(CCCCCCCCOc2ccc(CSc3cccc(OC)c3)nc2/C=C/C(=O)O)cc1"
  pKi: 6.72
- compound: "CCCCCCCCCCCCOc1ccc(CS(=O)(=O)c2cccc(C(=O)O)c2)nc1/C=C/C(=O)O"
  pKi: 6.83

(1) COc1ccc(CCCCCCCCOc2ccc(C[S+]([O-])c3ccccc3)nc2/C=C/C(=O)O)cc1 (stereo not drawn)
(2) Nc1cccc([S+]([O-])Cc2ccc(OCCCCCCCCc3ccc(F)cc3)c(/C=C/C(=O)O)n2)c1 (stereo not drawn)
Compare pKi: is it lower for 1 or for 2 ? Give the label under which the chosen entry appears.
1
(1: 7.43, 2: 7.92)

(a) COc1ccc(CCCCCCCCOc2ccc(CSc3cccc(N)c3)nc2/C=C/C(=O)O)cc1
(b) COc1ccc(CCCCCCCCOc2ccc(C[S+]([O-])c3cccc(CS(=O)(=O)C(F)(F)F)c3)nc2/C=C/C(=O)O)cc1 (stereo not drawn)
Pick one: a or b . Which has the bigger pKi number? Give the label under which the chosen entry appears.
a

(a) COc1ccc(CCCCCCCCOc2ccc(CSc3cccc(NS(=O)(=O)C(F)(F)F)c3)nc2/C=C/C(=O)O)cc1
(b) Nc1cccc(SCc2ccc(OCCCCCCCCc3ccccc3)c(/C=C/C(=O)O)n2)c1
Compare pKi: is it lower for a or for b ? Give the label under which the chosen entry appears.
a

====

# target.or.system: UniProt:Q15722
# experimental.details: Binding affinity of [3H]LTB4 to receptors on intact human polymorphonuclear leukocytes
observed.property: Ki (nM)

- compound: "Nc1cccc([S+]([O-])Cc2ccc(OCCCCCCCCc3ccc(C(F)(F)F)cc3)c(/C=C/C(=O)O)n2)c1 (configuration not stated)"
  Ki / nM: 14

(I) COc1ccc(CCCCCCCCOc2ccc(CS(=O)(=O)c3cccc(N)c3)nc2/C=C/C(=O)O)cc1
(II) CCCCCCCCCCCCOc1ccc(COc2cccc(C(=O)O)c2)[n+]([O-])c1/C=C/C(=O)O
Pick one: I or II . Which has the bigger Ki number? Give the label under which the chosen entry appears.
II

(I) CCCCCCCCCCCCOc1ccc(C[S+]([O-])c2ccc(C(=O)O)cc2)nc1/C=C/C(=O)O (configuration not stated)
(II) Nc1cccc([S+]([O-])Cc2ccc(OCCCCCCCCc3ccccc3)c(/C=C/C(=O)O)n2)c1 (configuration not stated)
(III) COc1ccc(CCCCCCCCOc2ccc(CSc3ccccc3)nc2/C=C/C(=O)O)cc1
Order these by Ki, descending, and give the full ranking. # format: label list in the order the request specifies
I, III, II

====

# Tested on: U-937
# experimental.details: Antagonistic activity to inhibit the calcium mobilization response in human U-937 cells
# Type: functional, cell-based
observed.property: IC50 (nM)

- compound: "COc1ccc(CCCCCCCCOc2ccc(CS(=O)(=O)c3cccc(N)c3)nc2/C=C/C(=O)O)cc1"
  observed.property: "IC50"
  meas.value: 150

(1) COc1ccc(CCCCCCCCOc2ccc(C[S+]([O-])c3ccccc3)nc2/C=C/C(=O)O)cc1 (stereo not given)
(2) CCCCCCCCCCOc1ccc(CC(O)c2cccc(C(=O)O)c2)nc1/C=C/C(=O)O (stereo not given)
(3) COc1ccc(CCCCCCCCOc2ccc(CSc3cccc(N)c3)nc2/C=C/C(=O)O)cc1
(4) COc1ccc(CCCCCCCCOc2ccc(C[S+]([O-])c3cccc(N(C)C)c3)nc2/C=C/C(=O)O)cc1 (stereo not given)
Order the entries by their reported IC50, beginning at the minimum. # format: label list in the order the request specifies
3, 1, 4, 2
(3: 54 nM, 1: 280 nM, 4: 820 nM, 2: 3300 nM)
